Test system: HCT-116
Test: NCI tumour cell line growth inhibition, 48 h
Calls of active or inactive are those of the source. Cut-off read from the data, not from the text of the source: active = GI50 up to about 1.1 µM and inactive = higher. *1 amine or outer side, *2 acyl side, *3 side chain or, on linkers, in order; H or OH if unused. Where a SMILES comes first, the peptide text is derived from it. Bridges are numbered along the chain shown (N, C = ends). Roman numbers before positions name the chains, in order. [ ]: non-standard residue; d: D form. Actinocin(9to1) = Cc1c2oc3c(C)ccc(C(=O)[*:1])c3nc-2c(C(=O)[*:2])c(N)c1=O; NMeV = CN[CH](C(=O)O)C(C)C; Sar = CNCC(=O)O
Use one of these outcomes when replying: Y (active), N (inactive)

Look up the recorded call for COC(=O)[C@@]12OC[C@]34C([C@@H](O)C1O)[C@@]1(C)CC(=O)C(OC(=O)CC(C)C(F)(F)F)=C(C)C1C[C@H]3OC(=O)[C@H](O)[C@H]42 (some centres undefined) in this test. N

Look up the recorded call for COc1ccc2c(c1OC)C(Br)CCC(Br)(Br)C2=O (centres undefined) in this test. N

Look up the recorded call for O=c1ssc2ncccc12 in this test. N

Look up the recorded call for COc1cc2c(cc1OCCCCCN1C(=O)c3cccc4cccc(c34)C1=O)N=C[C@@H]1CCCN1C2=O in this test. Y

Look up the recorded call for C/C(=N\NS(=O)(=O)c1ccc(C)cc1)c1cc2ccccc2n1C in this test. N

Look up the recorded call for N#Cc1c(C#N)c(-c2ccccc2)n(-c2ccccc2)c1N in this test. N

Look up the recorded call for CCCCCCCCCCCCCCCC(=O)Nc1ccn(C2OC(CO)C(O)C2O)c(=O)n1 (centres undefined) in this test. N

Look up the recorded call for Cc1ccc(Cl)c2c(=O)cc(-c3ccccc3)[nH]c12 in this test. N

Look up the recorded call for O=C1c2cccc3cc4ccccc4c(c23)C(=O)N1CCCNCCNCCCN1C(=O)c2cccc3cc4ccccc4c(c23)C1=O in this test. Y

Look up the recorded call for O=C(NCCCl)Nc1ccccc1 in this test. N

Look up the recorded call for CC(C)=CCC/C(C)=C/CC/C(C)=C/[C@@H]1[C@@H](CO)[C@]1(C)CC/C=C(\C)CCC=C(C)C in this test. N

Look up the recorded call for Cc1c2oc3c(C)ccc(C(=O)NC4C(=O)NC(C(C)C)C(=O)N5CCCC5C(=O)N(C)CC(=O)N(C)C(C(C)C)C(=O)OC4C)c3nc-2c(C(=O)NC2C(=O)NC(C(C)C)C(=O)N3CCCC3C(=O)N(C)CC(=O)N(C)C(C(C)C)C(=O)OC2C)c(N)c1=O (centres undefined) (I: TVP[Sar][NMeV] / II: TVP[Sar][NMeV]; ester I:1-I:C, II:1-II:C; linker I:N-II:N via Actinocin(9to1); configuration not given here) in this test. Y

Look up the recorded call for C[C@@H]1CC[C@@]2(C)C(C(=O)O)=CCCC2[C@@]1(C)CC(=O)c1ccoc1 (some centres undefined) in this test. N

Look up the recorded call for C/C(=N\C1CCCCC1)c1ccccc1O in this test. N

Origin of measurements: ChEMBL document CHEMBL1201862
